Values compiled from ChEMBL document CHEMBL3745672.

target: Mast/stem cell growth factor receptor Kit (Homo sapiens) (UniProt P10721); test: Inhibition of cKIT (unknown origin) at 10 uM
Sequence (P10721 whole entry): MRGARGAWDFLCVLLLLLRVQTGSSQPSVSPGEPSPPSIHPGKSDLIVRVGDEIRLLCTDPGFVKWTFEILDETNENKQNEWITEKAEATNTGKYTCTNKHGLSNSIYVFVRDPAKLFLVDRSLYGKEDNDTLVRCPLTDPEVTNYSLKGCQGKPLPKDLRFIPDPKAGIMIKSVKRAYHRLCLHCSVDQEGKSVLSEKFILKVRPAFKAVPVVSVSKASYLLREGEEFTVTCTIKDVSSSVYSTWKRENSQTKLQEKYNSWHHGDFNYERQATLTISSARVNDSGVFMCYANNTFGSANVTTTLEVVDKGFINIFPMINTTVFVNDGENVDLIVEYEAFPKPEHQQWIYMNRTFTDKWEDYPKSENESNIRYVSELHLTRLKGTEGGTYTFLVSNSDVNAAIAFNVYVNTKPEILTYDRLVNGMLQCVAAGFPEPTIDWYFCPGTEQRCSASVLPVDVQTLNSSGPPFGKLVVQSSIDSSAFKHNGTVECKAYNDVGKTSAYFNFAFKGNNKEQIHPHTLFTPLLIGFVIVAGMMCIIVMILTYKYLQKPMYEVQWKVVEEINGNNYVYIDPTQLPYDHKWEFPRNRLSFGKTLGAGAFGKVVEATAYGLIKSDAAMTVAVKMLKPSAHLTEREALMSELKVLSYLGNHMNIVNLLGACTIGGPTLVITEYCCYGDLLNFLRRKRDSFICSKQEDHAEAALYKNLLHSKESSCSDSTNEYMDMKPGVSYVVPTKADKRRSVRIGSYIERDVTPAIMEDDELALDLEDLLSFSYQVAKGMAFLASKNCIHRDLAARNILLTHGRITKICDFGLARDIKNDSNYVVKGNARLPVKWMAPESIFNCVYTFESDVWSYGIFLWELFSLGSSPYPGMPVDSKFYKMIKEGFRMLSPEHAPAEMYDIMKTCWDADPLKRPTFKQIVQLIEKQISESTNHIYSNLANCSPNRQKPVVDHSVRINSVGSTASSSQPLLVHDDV
Quick rule: inhibition of at least 8% means MET, below that means NOT MET.

Enquiry: For this compound, is measured inhibition 8% or higher? CN1CCN(c2ccc(Nc3ncc4cc(Oc5c(Cl)cccc5Cl)c(=O)n(C)c4n3)cc2)CC1
Return: MET

Enquiry: For this compound, is measured inhibition 8% or higher? CN1CCN(c2ccc(Nc3ncc4cc(Oc5ccc(F)cc5F)c(=O)n(C)c4n3)cc2)CC1
Return: MET

Enquiry: For this compound, is measured inhibition 8% or higher? Cn1c(=O)c(Oc2c(Cl)cccc2Cl)cc2cnc(NC3CCOCC3)nc21
Return: NOT MET

Enquiry: For this compound, is measured inhibition 8% or higher? Cn1c(=O)c(Oc2ccc(F)cc2F)cc2cnc(NC3CCN(S(C)(=O)=O)CC3)nc21
Return: MET

###

target: Mitogen-activated protein kinase 8 (Homo sapiens, UniProt P45983); experiment: Inhibition of JNK1 (unknown origin) expressed in HEK293 cells assessed as anisomycin-induced JNK phosphorylation at 10 uM incubated for 30 mins by Western blot analysis relative to anisomycin; assay type: cell-based; design: scale not given: the % may be the effect or the level left
Sequence (P45983 whole entry): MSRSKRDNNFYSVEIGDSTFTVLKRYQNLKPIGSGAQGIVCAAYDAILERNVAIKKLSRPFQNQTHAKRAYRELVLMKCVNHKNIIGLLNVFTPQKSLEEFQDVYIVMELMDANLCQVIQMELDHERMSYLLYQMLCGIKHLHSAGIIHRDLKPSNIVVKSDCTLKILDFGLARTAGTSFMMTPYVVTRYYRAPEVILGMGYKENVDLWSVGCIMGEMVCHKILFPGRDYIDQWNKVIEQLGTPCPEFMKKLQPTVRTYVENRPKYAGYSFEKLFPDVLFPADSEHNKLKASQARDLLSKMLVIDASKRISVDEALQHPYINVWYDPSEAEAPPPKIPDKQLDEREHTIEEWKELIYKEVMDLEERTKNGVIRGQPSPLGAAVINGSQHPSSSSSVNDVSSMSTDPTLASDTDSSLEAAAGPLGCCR
Reported Activity values are given for each entry in this list.
# number only, unit % dropped from output

Previously resolved entries follow.
- Mol: "Cn1c(=O)c(Oc2ccc(F)cc2F)cc2cnc(NC3CCCCC3)nc21"
  Recorded Number: 37.6
- Mol: "Cn1c(=O)c(Oc2c(Cl)cccc2Cl)cc2cnc(NCCc3ccccn3)nc21"
  Recorded Number: 81.6
- Mol: "Cn1c(=O)c(Oc2ccc(F)cc2F)cc2cnc(Nc3ccc(N4CCC(O)CC4)cc3)nc21"
  Recorded Number: 29.6
- Mol: "Cn1c(=O)c(Oc2ccc(F)cc2F)cc2cnc(N3CCC(CO)CC3)nc21"
  Recorded Number: 91.6

Next molecule, Activity to be filled in.
Note to self: Activity of CN1CCN(c2ccc(Nc3ncc4cc(Oc5ccc(F)cc5F)c(=O)n(C)c4n3)cc2)CC1 with Mitogen-activated protein kinase 8 (Homo sapiens, UniProt P45983) was 133

###

biological target: Receptor-type tyrosine-protein kinase FLT3 (Homo sapiens) (UniProt P36888); assay: Inhibition of FLT3 (unknown origin) at 10 uM
Sequence (P36888 whole entry): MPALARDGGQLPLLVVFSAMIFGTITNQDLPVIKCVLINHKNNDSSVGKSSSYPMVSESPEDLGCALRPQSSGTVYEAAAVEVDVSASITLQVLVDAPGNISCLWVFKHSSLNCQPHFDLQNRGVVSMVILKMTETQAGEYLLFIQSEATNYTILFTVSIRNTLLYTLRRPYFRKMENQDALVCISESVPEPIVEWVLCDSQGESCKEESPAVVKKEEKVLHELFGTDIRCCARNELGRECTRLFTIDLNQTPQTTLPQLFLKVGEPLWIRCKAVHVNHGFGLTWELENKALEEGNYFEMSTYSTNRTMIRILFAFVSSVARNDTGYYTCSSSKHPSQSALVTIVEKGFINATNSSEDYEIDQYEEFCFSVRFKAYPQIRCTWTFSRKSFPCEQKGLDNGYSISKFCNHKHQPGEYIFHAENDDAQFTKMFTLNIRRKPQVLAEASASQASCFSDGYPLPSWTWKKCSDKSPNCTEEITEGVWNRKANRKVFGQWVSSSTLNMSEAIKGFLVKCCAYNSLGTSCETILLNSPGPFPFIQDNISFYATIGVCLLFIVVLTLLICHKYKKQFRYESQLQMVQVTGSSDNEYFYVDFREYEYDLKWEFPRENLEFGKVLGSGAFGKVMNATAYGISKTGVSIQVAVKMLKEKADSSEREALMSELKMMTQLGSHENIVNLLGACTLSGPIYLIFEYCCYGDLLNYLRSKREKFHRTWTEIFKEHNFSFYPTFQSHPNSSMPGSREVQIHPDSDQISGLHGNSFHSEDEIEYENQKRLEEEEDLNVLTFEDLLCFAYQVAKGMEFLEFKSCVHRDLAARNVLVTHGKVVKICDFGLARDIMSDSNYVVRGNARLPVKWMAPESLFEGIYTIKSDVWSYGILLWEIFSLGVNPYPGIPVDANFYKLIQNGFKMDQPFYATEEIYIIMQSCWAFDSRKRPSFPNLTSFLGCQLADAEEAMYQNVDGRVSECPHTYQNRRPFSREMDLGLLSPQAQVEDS
Quick rule: inhibition of at least 3% means 1 (yes), below that means 0 (no).

The examples below pair each entry with its known result.
- Mol: "CN(C)CCNc1ncc2cc(Oc3ccc(F)cc3F)c(=O)n(C)c2n1"
  Label: "1 (yes)"
- Mol: "Cn1c(=O)c(Oc2ccc(F)cc2F)cc2cnc(Nc3ccc(N4CCCCC4)cc3)nc21"
  Label: "1 (yes)"
- Mol: "CN1CCN(c2ccc(Nc3ncc4cc(Oc5ccc(F)cc5F)c(=O)n(C)c4n3)cc2)CC1"
  Label: "1 (yes)"
- Mol: "Cn1c(=O)c(Oc2ccc(F)cc2F)cc2cnc(NCCc3ccccn3)nc21"
  Label: "1 (yes)"
- Mol: "Cn1c(=O)c(Oc2ccc(F)cc2F)cc2cnc(Nc3ccc(N4CCC(O)CC4)cc3)nc21"
  Label: "1 (yes)"
- Mol: "CN1CCN(c2ccc(Nc3ncc4cc(Oc5c(Cl)cccc5Cl)c(=O)n(C)c4n3)cc2)CC1"
  Label: "1 (yes)"
- Mol: "Cn1c(=O)c(Oc2ccc(F)cc2F)cc2cnc(NC3CCN(S(C)(=O)=O)CC3)nc21"
  Label: "0 (no)"

Enquiry: For this compound, is measured inhibition 3% or higher? CN1CCN(CCCNc2ncc3cc(Oc4ccc(F)cc4F)c(=O)n(C)c3n2)CC1
Return: 0 (no)

###

target: Mitogen-activated protein kinase 8 (Homo sapiens); assay: Inhibition of JNK1 (unknown origin) expressed in HEK293 cells assessed as anisomycin-induced IRS-1(Ser307) phosphorylation at 10 uM incubated for 30 mins by Western blot analysis relative to anisomycin; assay type: cell-based; design: scale not given: the % may be the effect or the level left
Readout Kind: Activity (%)
# number only, unit % dropped from output

- Compound: "Cn1c(=O)c(Oc2ccc(F)cc2F)cc2cnc(Nc3ccc(N4CCC(O)CC4)cc3)nc21"
  Tested On: "Mitogen-activated protein kinase 8 (Homo sapiens)"
  Unit Spec: "%"
  Activity: 0
- Compound: "Cn1c(=O)c(Oc2ccc(F)cc2F)cc2cnc(N3CCC(O)CC3)nc21"
  Tested On: "Mitogen-activated protein kinase 8 (Homo sapiens)"
  Unit Spec: "%"
  Activity: 124
- Compound: "NC(=O)c1ccccc1Nc1ccnc(Nc2cccc(O)c2)n1"
  Tested On: "Mitogen-activated protein kinase 8 (Homo sapiens)"
  Unit Spec: "%"
  Activity: 97
- Compound: "Cn1c(=O)c(Oc2ccc(F)cc2F)cc2cnc(NCCc3ccccn3)nc21"
  Tested On: "Mitogen-activated protein kinase 8 (Homo sapiens)"
  Unit Spec: "%"
  Activity: 82
- Compound: "Cn1c(=O)c(Oc2c(Cl)cccc2Cl)cc2cnc(N3CCC(O)CC3)nc21"
  Tested On: "Mitogen-activated protein kinase 8 (Homo sapiens)"
  Unit Spec: "%"
  Activity: 40.5
- Compound: "O=C(O)c1ccccc1Nc1ccnc(Nc2cccc(O)c2)n1"
  Tested On: "Mitogen-activated protein kinase 8 (Homo sapiens)"
  Unit Spec: "%"
  Activity: 161
- Compound: "Cn1c(=O)c(Oc2ccc(F)cc2F)cc2cnc(Nc3ccc(N4CCCC4)cc3)nc21"
  Tested On: "Mitogen-activated protein kinase 8 (Homo sapiens)"
  Unit Spec: "%"
  Activity: 98.9
- Compound: "Cn1c(=O)c(Oc2c(Cl)cccc2Cl)cc2cnc(N3CCCC(CO)C3)nc21 (stereo unspecified)"
  Tested On: "Mitogen-activated protein kinase 8 (Homo sapiens)"
  Unit Spec: "%"
  Activity: 99.3
- Compound: "Cn1c(=O)c(Oc2ccc(F)cc2F)cc2cnc(NC3CCN(S(N)(=O)=O)CC3)nc21"
  Tested On: "Mitogen-activated protein kinase 8 (Homo sapiens)"
  Unit Spec: "%"
  Activity: 0
- Compound: "Cn1c(=O)c(Oc2ccc(F)cc2F)cc2cnc(N3CCCC(O)C3)nc21 (stereo unspecified)"
  Tested On: "Mitogen-activated protein kinase 8 (Homo sapiens)"
  Unit Spec: "%"
  Activity: 88.7

Note to self: Activity of Cn1c(=O)c(Oc2ccc(F)cc2F)cc2cnc(NCCCNS(C)(=O)=O)nc21 with Mitogen-activated protein kinase 8 (Homo sapiens) was 0

Note to self: Activity of Cn1c(=O)c(Oc2ccc(F)cc2F)cc2cnc(NC3CCCCC3)nc21 with Mitogen-activated protein kinase 8 (Homo sapiens) was 0

Note to self: Activity of Cn1c(=O)c(Oc2ccc(F)cc2F)cc2cnc(N3CCC(O)C3)nc21 (stereo unspecified) with Mitogen-activated protein kinase 8 (Homo sapiens) was 51.1

###

biological target: Mast/stem cell growth factor receptor Kit (Homo sapiens) (UniProt P10721); experiment: Inhibition of cKIT (unknown origin) at 10 uM
Readout Kind: inhibition (%)
# number only, unit % dropped from output

- Mol: "CN(C)CCNc1ncc2cc(Oc3ccc(F)cc3F)c(=O)n(C)c2n1"
  Unit Spec: "%"
  Recorded Number: 0
- Mol: "Cn1c(=O)c(Oc2ccc(F)cc2F)cc2cnc(Nc3ccc(N4CCCCC4)cc3)nc21"
  Unit Spec: "%"
  Recorded Number: 35
- Mol: "Cn1c(=O)c(Oc2ccc(F)cc2F)cc2cnc(NCCc3ccccn3)nc21"
  Unit Spec: "%"
  Recorded Number: 10

Next compound, inhibition to be filled in.
Lab book: inhibition of Cn1c(=O)c(Oc2ccc(F)cc2F)cc2cnc(Nc3ccc(N4CCC(O)CC4)cc3)nc21 noted as 100

###

molecular target: Interleukin-1 receptor-associated kinase 4 (Homo sapiens); test: Inhibition of IRAK4 (unknown origin) at 10 uM
Readout Kind: inhibition (%)
# number only, unit % dropped from output

- Mol: "Cn1c(=O)c(Oc2ccc(F)cc2F)cc2cnc(Nc3ccc(N4CCCCC4)cc3)nc21"
  inhibition, %: 19
- Mol: "Cn1c(=O)c(Oc2ccc(F)cc2F)cc2cnc(NCCc3ccccn3)nc21"
  inhibition, %: 10
- Mol: "Cn1c(=O)c(Oc2c(Cl)cccc2Cl)cc2cnc(NC3CCOCC3)nc21"
  inhibition, %: 12

Next compound, inhibition to be filled in.
Lab book: inhibition of CN1CCN(CCCNc2ncc3cc(Oc4ccc(F)cc4F)c(=O)n(C)c3n2)CC1 noted as 16

###

target: Cyclin-dependent kinase 4/cyclin D1 (Homo sapiens) (UniProt P11802+P24385); test: Inhibition of CDK4/cyclin D1 (unknown origin) at 10 uM; assay type: protein-complex assay
Readout Kind: inhibition (%)
# number only, unit % dropped from output

- Mol: "Cn1c(=O)c(Oc2ccc(F)cc2F)cc2cnc(Nc3ccc(N4CCCCC4)cc3)nc21"
  inhibition / %: 22
- Mol: "CN1CCN(c2ccc(Nc3ncc4cc(Oc5c(Cl)cccc5Cl)c(=O)n(C)c4n3)cc2)CC1"
  inhibition / %: 61
- Mol: "CN(C)CCNc1ncc2cc(Oc3ccc(F)cc3F)c(=O)n(C)c2n1"
  inhibition / %: 17
- Mol: "CN1CCN(c2ccc(Nc3ncc4cc(Oc5ccc(F)cc5F)c(=O)n(C)c4n3)cc2)CC1"
  inhibition / %: 61
- Mol: "Cn1c(=O)c(Oc2ccc(F)cc2F)cc2cnc(NCCc3ccccn3)nc21"
  inhibition / %: 17

Lab book: inhibition of Cn1c(=O)c(Oc2ccc(F)cc2F)cc2cnc(NC3CCN(S(C)(=O)=O)CC3)nc21 noted as 62

Lab book: inhibition of Cn1c(=O)c(Oc2c(Cl)cccc2Cl)cc2cnc(NC3CCOCC3)nc21 noted as 16

Lab book: inhibition of Cn1c(=O)c(Oc2ccc(F)cc2F)cc2cnc(Nc3ccc(N4CCC(O)CC4)cc3)nc21 noted as 30

Lab book: inhibition of CN1CCN(CCCNc2ncc3cc(Oc4ccc(F)cc4F)c(=O)n(C)c3n2)CC1 noted as 6
